Test system: SK-MEL-5 melanoma
Test: NCI-60 one-dose screen, 48 h
Conditions: 10 µM unless noted
The panel holds about 83,000 compounds, 20% with a hit somewhere; the sample as a whole holds those more often. Activity calls are given as the source filed them. The calls were made as follows: active = growth percent below 10; inactive = the rest.
Use one of these outcomes when replying: TRUE (active), FALSE (inactive)

Answered examples (10):
>>> class_label("Cc1ccc(/C=C/c2c(C(=O)/C=C/c3ccc(C(F)(F)F)cc3)c(C)nc3ccccc23)cc1")
"TRUE"
>>> class_label("O=C1/C(=C/c2ccc(F)cc2)C=C(c2ccccc2)N1CCc1ccccc1")
"FALSE"
>>> class_label("COc1ccc(-c2ccc3c(c2)sc2nc(-c4ccc(F)cc4)cn23)cc1")
"FALSE"
>>> class_label("Cc1ccc(S(=O)(=O)NCC[C@@H]2C[C@H]2c2cc3ccccc3s2)cc1")
"FALSE"
>>> class_label("C=CC(=O)Nc1cccc(Oc2nccc(Nc3nnc(C4CC4)s3)n2)c1")
"FALSE"
>>> class_label("CC(=O)[C@@H]1CC[C@]2(COS(=O)(=O)c3ccc(C)cc3)CC[C@]3(C)[C@H](CC[C@@H]4[C@@]5(C)CCCNC(C)(C)[C@@H]5CC[C@]43C)[C@@H]12")
"FALSE"
>>> class_label("CN(C)CC1=NC2SC=C(c3ccccc3)C2C(=O)N1CC#N (centres undefined)")
"FALSE"
>>> class_label("Cc1cc(=O)[nH]c(N=Nc2c(O)[nH]c3ccccc23)n1")
"FALSE"
>>> class_label("CCCCC1CCCCN1C(=O)OCC (centres undefined)")
"FALSE"
>>> class_label("CNC(=O)NCC1OC(n2cnc3c(NC(=O)Nc4ccccc4)ncnc32)C(O[Si](C)(C)C(C)(C)C)C1CC(=O)N(C)OC (centres undefined)")
"FALSE"

For the next question, use this molecule.
For `CCOC(=O)c1c(-c2ccc(Cl)cc2)c(C#N)c(=O)n(-c2ccccc2CC)c1N` , what call appears in the results of this test? FALSE

---

System: SN12C renal
Test: NCI-60 one-dose screen, 48 h
Conditions: 10 µM unless noted
About 83,000 compounds went through this panel and 20% of them were active in at least one assay; those are over-represented in the sample as a whole. Calls of active or inactive are those of the source. How the source made its calls: active means growth percent below 10; inactive means the rest.
Use one of these outcomes when replying: true = active, false = inactive

For `N#Cc1nc2c(S(=O)(=O)c3ccc(Cl)cc3)c(N)n(Nc3cccc(Cl)c3)c2nc1C#N` , what call appears in the results of this test? false

For `Cc1cc(NCc2cc(Nc3ccnc4cc(Cl)ccc34)ccc2F)nc(N2CCN(c3ccccc3)CC2)n1` , what call appears in the results of this test? false

For `O=C1C=C[C@]2(C[C@@H](c3cccc(C(F)(F)F)c3)O[C@@H](c3cccc(C(F)(F)F)c3)O2)O1` , what call appears in the results of this test? true

For `COc1cc(N=Nc2ccc(N)cc2)c(OC)cc1N=Nc1ccccc1.[Cl][Zn][Cl]` , what call appears in the results of this test? false

For COc1cc(C2CC(=O)Nc3c2c(C)nn3-c2nc3ccccc3[nH]2)c(OC)c(OC)c1OC (stereo not given) , what call appears in the results of this test? false

---

Consider the following molecules; for each one, report its growth.
System: NCI-H226 lung
Assay: NCI-60 one-dose screen, 48 h (100 = growth as untreated, 0 = no growth, -100 = all killed)
Details: 10 µM unless noted
The panel holds about 83,000 compounds, 20% with a hit somewhere; the sample as a whole holds those more often.
Give bare numbers, in %.

Worked cases, growth given:
>>> observed_measurement("Cc1ccc(-n2c(-c3ccccc3)c(-c3ccccc3)c3c(SCC(=O)n4[nH]c(N)cc4=O)ncnc32)cc1")
88.8
>>> observed_measurement("N#Cc1c(N2CCNCC2)nc2sc3cc(Cl)c(Cl)cc3n2c1=N")
95.2
>>> observed_measurement("Nc1n[nH]c(-c2cc(Cl)ccc2O)c1-c1ccccc1")
70.5
>>> observed_measurement("COc1cc(C2NC(=O)c3ccccc3N2)ccc1OCCCCCOc1c(OC)cc(C2=NOC(c3cc(OC)c(OC)c(OC)c3)C2)cc1OC (stereo not given)")
71.5
>>> observed_measurement("COc1cc(/C=N/NC(=O)Cn2c(C(C)C)nc3ccccc32)ccc1O")
93.7
>>> observed_measurement("NC[C@H](O)c1ccc(O)c(O)c1")
109
>>> observed_measurement("O=C(CSc1nnc(-c2ccc(NC(=O)c3cccnc3)cc2)o1)N[C@@H](Cc1ccc(O)cc1)C(=O)O")
102
>>> observed_measurement("CC(=O)C(C)Cc1cc2c(cc1C)C(C)(C)CCC2(C)C (stereo not given)")
99.5
>>> observed_measurement("COc1ccc(NC(=O)CSc2nc(C)c(C(C)=O)n2-c2ccc([N+](=O)[O-])cc2)cc1")
89

Let us move to another entry and its growth.
Which value of growth has been reported for `CC/C=C1/C(=O)C=C[C@@H]1C/C=C\CCCC(=O)O` in the records? 93.3

Sourced from PubChem BioAssay (NCI)
